Provide the reported Trimeric HA Binding: RLU of each item.
- system_tested: recombinant soluble homotrimeric HA, A/Wisconsin/67/05 H3N2 (Influenza A virus A/Wisconsin/67/2005(H3N2))
- assay_explanation: microarray, transfection SN IgG, trimeric HA
- test_context: remark: other sources report otherwise
Give your result in RLU as a bare value.

Record TCN-555 (5246_L16) (antibody, V domains shown) VH: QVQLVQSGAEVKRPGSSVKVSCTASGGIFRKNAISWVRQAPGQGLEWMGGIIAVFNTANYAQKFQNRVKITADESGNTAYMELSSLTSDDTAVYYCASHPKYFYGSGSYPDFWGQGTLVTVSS VL: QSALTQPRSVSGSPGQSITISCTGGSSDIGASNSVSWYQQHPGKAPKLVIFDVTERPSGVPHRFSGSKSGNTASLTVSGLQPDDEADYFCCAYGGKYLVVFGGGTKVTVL , field Trimeric HA Binding: RLU: 14700

Record TCN-504 (3251_K17) (antibody, V domains shown) VH: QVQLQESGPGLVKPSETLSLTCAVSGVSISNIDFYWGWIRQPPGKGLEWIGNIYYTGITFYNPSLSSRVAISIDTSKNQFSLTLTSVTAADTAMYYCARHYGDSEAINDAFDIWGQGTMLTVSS VL: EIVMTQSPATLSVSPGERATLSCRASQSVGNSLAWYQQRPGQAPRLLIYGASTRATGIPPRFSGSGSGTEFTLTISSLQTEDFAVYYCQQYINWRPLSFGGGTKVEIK , field Trimeric HA Binding: RLU: 38100

Record TCN-547 (5092_F11) (antibody, V domains shown) VH: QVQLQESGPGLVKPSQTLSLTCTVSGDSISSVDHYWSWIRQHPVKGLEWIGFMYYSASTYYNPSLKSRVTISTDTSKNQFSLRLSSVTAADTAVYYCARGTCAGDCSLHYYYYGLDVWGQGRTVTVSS VL: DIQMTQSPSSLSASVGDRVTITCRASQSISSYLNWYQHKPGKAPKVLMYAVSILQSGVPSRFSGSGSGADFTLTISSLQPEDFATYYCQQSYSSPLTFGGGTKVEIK , field Trimeric HA Binding: RLU: 6970
